# Tested on: HeLa cells
# method notes: Cell cycle assay in HeLa cells
# Type: cell-based, human
# reported conditions: HeLa cells, 150 nM, 48 hours, relative to untreated control
In the oligonucleotide strings, read from the 5' end, every base follows the letter of its sugar. An asterisk marks phosphorothioate; unmarked linkages are phosphodiester. Other units and linkages are bracketed, terminal groups are in braces. A string of capitals states the bases alone. e = 2'-O-(2-methoxyethyl) (MOE); [5mC] = 5-methylcytosine; d = 2'-deoxy (DNA)
Each record here notes measured % cells in cell cycle phase G1.
# output: bare number, implied unit %

substance	tested on	units text	% cells in cell cycle phase G1
328342 (e[5mC]*eA*eA*eT*eT*dG*d[5mC]*dG*d[5mC]*dT*dA*d[5mC]*dA*dG*dA*eA*e[5mC]*eT*eG*eT) [compound 328342]	HeLa cells	%	96
327896 (antisense eA*e[5mC]*eA*eG*eT*eT*e[5mC]*eT*eT*e[5mC]*eA*eA*e[5mC]*eT*eG*eG*e[5mC]*eA*eG*e[5mC]*eT*eT) [compound 327896]	HeLa cells	%	103

Below: the item to evaluate.
The substance 338797 (antisense CTGGGGAGGGGGTTAGCGTC; all 2'-MOE, all phosphorothioate, methylation of C not given here) [compound 338797] showed % cells in cell cycle phase G1 equal to 104

* * *

# System: adipocytes
# method notes: Triglyceride accumulation assay in adipocytes
# Format: cell-based, human
# reported conditions: differentiating adipocytes transfected with oligomeric compound
In the oligonucleotide strings, read from the 5' end, every base follows the letter of its sugar. An asterisk marks phosphorothioate; unmarked linkages are phosphodiester. Other units and linkages are bracketed, terminal groups are in braces. A string of capitals states the bases alone. e = 2'-O-(2-methoxyethyl) (MOE); [5mC] = 5-methylcytosine; d = 2'-deoxy (DNA)
property measured: TG (triglyceride accumulation)

Some substances with recorded TG (triglyceride accumulation):
substance	TG (triglyceride accumulation)
328759 (antisense eG*eA*eG*eG*eG*dA*dT*dT*dG*dT*dA*dT*dG*dA*dA*e[5mC]*eA*eT*e[5mC]*eT) [compound 328759]	87 percentage of untreated control (UTC)
328685 (e[5mC]*eG*eG*e[5mC]*e[5mC]*dG*dG*dA*dG*d[5mC]*d[5mC]*dA*dT*dA*dG*eA*e[5mC]*eT*e[5mC]*eG; antisense) [compound 328685]	50 percentage of untreated control (UTC)
328340 (eT*eA*eA*eT*eA*dT*dA*dT*dA*dT*dT*dT*d[5mC]*dA*d[5mC]*eT*eA*e[5mC]*eG*e[5mC]) [compound 328340]	76 percentage of untreated control (UTC)
327951 (antisense e[5mC]*eA*e[5mC]*eA*eA*eA*e[5mC]*e[5mC]*eA*eT*eT*eA*eT*eG*eT*eG*e[5mC]*eT*eG*e[5mC]*eT*eA) [compound 327951]	76 percentage of untreated control (UTC)
327928 (antisense eA*eA*e[5mC]*e[5mC]*eG*eA*eT*eT*eT*e[5mC]*eA*eG*eA*eT*eG*eG*eT*eG*e[5mC]*eT*eA*eG) [compound 327928]	45 percentage of untreated control (UTC)

Reported TG (triglyceride accumulation) (adipocytes) for entry 328362 (eT*eG*eT*eG*eT*dT*dT*dT*d[5mC]*dT*dG*dA*d[5mC]*dT*d[5mC]*eA*eG*eT*e[5mC]*eA) [compound 328362] is 73 percentage of untreated control (UTC)

Reported TG (triglyceride accumulation) (adipocytes) for entry NNNNNNNNNNNNNNNNNNNN [ISIS 29848, reference compound] is 89 percentage of untreated control (UTC)

Reported TG (triglyceride accumulation) (adipocytes) for entry 328434 (antisense e[5mC]*eG*e[5mC]*eA*eT*d[5mC]*dT*dT*dG*dA*d[5mC]*dT*dG*dT*dA*eG*e[5mC]*eA*eT*eG) [compound 328434] is 91 percentage of untreated control (UTC)

* * *

# Tested on: PPARγ
# method notes: PPARγ mRNA expression in adipocytes (real-time PCR)
# Assay type: cell-based, human
# reported conditions: differentiating adipocytes transfected with oligomeric compound; Table 75
In the oligonucleotide strings, read from the 5' end, every base follows the letter of its sugar. An asterisk marks phosphorothioate; unmarked linkages are phosphodiester. Other units and linkages are bracketed, terminal groups are in braces. A string of capitals states the bases alone. e = 2'-O-(2-methoxyethyl) (MOE); [5mC] = 5-methylcytosine
property measured: PPAR gamma mRNA

Some substances with recorded PPAR gamma mRNA:
substance	PPAR gamma mRNA
327899 (antisense e[5mC]*eA*eG*eT*eG*eA*eA*eT*eT*e[5mC]*eT*eA*e[5mC]*e[5mC]*eA*eG*eT*eG*e[5mC]*e[5mC]*eA*eT*eA) [compound 327899]	62 percentage of untreated control (UTC)
344275 (antisense UCUAGUGGUCCUAAACAUUUCA; all 2'-MOE, all phosphorothioate, methylation of C and T or U not given here) [compound 344275]	46 percentage of untreated control (UTC)

Below: the item to evaluate.
Reported PPAR gamma mRNA (PPARγ) for entry 328116 (antisense e[5mC]*eA*eA*eA*eA*eT*eT*eG*e[5mC]*eA*eA*eG*e[5mC]*eA*eA*eA*eT*eT*eG*e[5mC]*eA) [compound 328116] is 95 percentage of untreated control (UTC)

* * *

# System: PEPCK-c
# method notes: PEPCK-c mRNA expression in HepG2 cells
# Format: cell-based, human
# reported conditions: Experiment 4, insulin-sensitization: HepG2 cells treated with 1 nM insulin for four hours, 48 h post-transfection; mRNA by real-time PCR
In the oligonucleotide strings, read from the 5' end, every base follows the letter of its sugar. An asterisk marks phosphorothioate; unmarked linkages are phosphodiester. Other units and linkages are bracketed, terminal groups are in braces. A string of capitals states the bases alone. e = 2'-O-(2-methoxyethyl) (MOE); [5mC] = 5-methylcytosine; d = 2'-deoxy (DNA)
property measured: PEPCK-c (% UTC)
# output: bare number, implied unit % UTC

Some substances with recorded PEPCK-c (% UTC):
substance	property measured	endpoint value
328384 (eT*e[5mC]*eA*e[5mC]*eG*dT*dG*dG*dA*dG*dA*dG*dG*dA*dG*eT*eT*eA*eA*eA; antisense) [compound 328384]	PEPCK-c (% UTC)	114
328685 (e[5mC]*eG*eG*e[5mC]*e[5mC]*dG*dG*dA*dG*d[5mC]*d[5mC]*dA*dT*dA*dG*eA*e[5mC]*eT*e[5mC]*eG; antisense) [compound 328685]	PEPCK-c (% UTC)	184
328761 (antisense eG*e[5mC]*eA*eG*eG*d[5mC]*dT*dA*dA*dA*dA*dG*dA*dA*dA*eT*eA*eA*eG*e[5mC]) [compound 328761]	PEPCK-c (% UTC)	55
328677 (eT*e[5mC]*e[5mC]*eT*eG*dG*dA*dT*dG*dA*dT*dA*dT*d[5mC]*dT*eA*e[5mC]*e[5mC]*eT*e[5mC]; antisense) [compound 328677]	PEPCK-c (% UTC)	117
328691 (e[5mC]*e[5mC]*e[5mC]*e[5mC]*eA*dT*d[5mC]*dT*dT*dA*dG*d[5mC]*dA*dT*d[5mC]*eT*eA*eA*eG*eG) [compound 328691]	PEPCK-c (% UTC)	97
328759 (antisense eG*eA*eG*eG*eG*dA*dT*dT*dG*dT*dA*dT*dG*dA*dA*e[5mC]*eA*eT*e[5mC]*eT) [compound 328759]	PEPCK-c (% UTC)	92
340362 (antisense GACTGTTGAATCTCATGGCA; 5-10-5 gapmer, wing sugar and linkages not given here, further chemistry not given here) [compound 340362]	PEPCK-c (% UTC)	104

Reported PEPCK-c (% UTC) (PEPCK-c) for entry 328779 (antisense eT*eG*eT*eT*eT*dG*dT*d[5mC]*dT*d[5mC]*d[5mC]*dA*dA*dG*dA*eA*eA*e[5mC]*eG*eT) [compound 328779] is 78

* * *

# Test system: HSL
# method notes: HSL mRNA expression in adipocytes (real-time PCR)
# Type: cell-based, human
# reported conditions: Table 17; differentiating adipocytes; control = treatment with ISIS 342673
In the oligonucleotide strings, read from the 5' end, every base follows the letter of its sugar. An asterisk marks phosphorothioate; unmarked linkages are phosphodiester. Other units and linkages are bracketed, terminal groups are in braces. A string of capitals states the bases alone. e = 2'-O-(2-methoxyethyl) (MOE); [5mC] = 5-methylcytosine; d = 2'-deoxy (DNA)
property measured: HSL mRNA

Some substances with recorded HSL mRNA:
substance	tested on	endpoint value
328125 (antisense eT*eA*eT*eG*eA*eA*eA*eT*eG*e[5mC]*e[5mC]*eA*eG*eA*eG*e[5mC]*eT*eG*e[5mC]*e[5mC]*eA) [compound 328125]	HSL	75.8 percentage of control
105990 (antisense AGCAAAAGATCAATCCGTTA; sugars from the 5' end e5 d10 e5, backbone and methylation of C not given here) [compound 105990]	HSL	49.2 percentage of control

Below: the item to evaluate.
The substance 328120 (antisense eA*eA*eG*eA*eA*eG*eG*eA*eA*eG*eG*eA*eG*eG*eG*eA*eA*eA*eG*e[5mC]*eA) [compound 328120] showed HSL mRNA equal to 77.7 percentage of control
